Where do these numbers come from? They come from paper PMC3860265.

- target: CLK1 (mouse, UniProt P22518 1-483)
- Sequence (P22518 whole entry): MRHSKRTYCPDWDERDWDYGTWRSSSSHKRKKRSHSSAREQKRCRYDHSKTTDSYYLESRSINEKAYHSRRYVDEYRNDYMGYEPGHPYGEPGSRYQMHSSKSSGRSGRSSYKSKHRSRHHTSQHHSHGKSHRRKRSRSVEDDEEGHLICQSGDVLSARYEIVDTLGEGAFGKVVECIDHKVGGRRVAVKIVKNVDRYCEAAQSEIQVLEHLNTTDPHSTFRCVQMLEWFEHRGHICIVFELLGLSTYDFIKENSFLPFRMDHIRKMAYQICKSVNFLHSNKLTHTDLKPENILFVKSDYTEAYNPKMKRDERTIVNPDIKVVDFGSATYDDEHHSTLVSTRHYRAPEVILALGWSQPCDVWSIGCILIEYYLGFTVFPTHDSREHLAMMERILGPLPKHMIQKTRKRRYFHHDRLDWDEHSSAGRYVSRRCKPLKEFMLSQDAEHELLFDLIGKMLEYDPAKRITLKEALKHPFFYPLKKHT
- assay.procedure: kinase competition assay
pKi: −log10 of the molar value.
test.readout: pKi

Req: Param item = AYIRVKVDGPRSPSYGRSRSRSRSRSRSRSRSNSRSRSYSP (domain or fragment, UniProt Q07955 188-228, looked up) [SR(188–228)] ; retrieve measured pKi.
Resp: 6.62

(a) AYIRVKVDGPRSPSYGRSRSRSRSRSRSRSRSNSRSRSYSPRRSRGSP (domain or fragment, UniProt Q07955 188-235, looked up) [SR(188–235)]
(b) AYIRVKVDGPRSPSYGRSRSRSRSRSRSRSRSN (domain or fragment, UniProt Q07955 188-220, looked up) [SR(188–220)]
Req: Param metric = pKi; output whichever of a , b has the minimum value. Let me know the label of the one you choose.
Resp: b
